Where do these numbers come from? They come from ChEMBL document CHEMBL4602649.

Form field: pIC50 (one value per entry).
Molecular target: Adenosylhomocysteinase (Homo sapiens, UniProt P23526)
Sequence (P23526 whole entry): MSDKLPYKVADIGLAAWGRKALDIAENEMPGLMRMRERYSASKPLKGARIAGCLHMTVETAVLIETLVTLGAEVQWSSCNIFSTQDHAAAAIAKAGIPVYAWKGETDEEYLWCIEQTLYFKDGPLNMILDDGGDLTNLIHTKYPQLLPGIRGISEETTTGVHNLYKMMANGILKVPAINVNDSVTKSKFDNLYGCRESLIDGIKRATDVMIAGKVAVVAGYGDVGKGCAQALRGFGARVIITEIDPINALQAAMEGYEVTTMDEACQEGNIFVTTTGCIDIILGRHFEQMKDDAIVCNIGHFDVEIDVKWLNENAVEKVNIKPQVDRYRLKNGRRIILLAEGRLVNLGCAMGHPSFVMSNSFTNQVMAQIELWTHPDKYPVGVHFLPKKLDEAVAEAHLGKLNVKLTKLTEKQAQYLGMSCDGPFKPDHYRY
Convention used: pIC50 is expressed as -log10 of the molar concentration.

Below, 3 compounds whose answers are already recorded.
{"columns": ["SMILES_STR", "pIC50"],
 "data": [
  ["Nc1ncnc2c1ncn2[C@H]1[C@H](O)[C@H](O)[C@@H](CCO)[C@H]1F", 6.44],
  ["Nc1ncnc2c1ncn2[C@H]1[C@H](O)[C@H](O)[C@@H](CCO)C1(F)F", 5.69],
  ["CNc1ncnc2c1ncn2[C@H]1[C@H](O)[C@H](O)[C@@H](CCO)[C@H]1F", 6.43]
]}

For reference, reported pIC50 for CNc1ncnc2c1ncn2[C@H]1[C@H](O)[C@H](O)[C@@H](CCO)C1(F)F stands at 5.52

====

Tested on: Vero C1008
Assay: Cytotoxicity against African green monkey Vero E6 cells assessed as reduction in cell viability measured after 96 hrs by MTS assay
Assay type: cell-based
Details: chlorocebus sabaeus, vero c1008, 96 h
Items are presented alongside their recorded CC50.

// known answers, use as guide
{"columns": ["SMILES_STR", "CC50"],
 "data": [
  ["Nc1ncnc2c1ncn2[C@H]1[C@H](O)[C@H](O)[C@@H](CCO)[C@H]1F", "> 250 µM"],
  ["Nc1ncnc2c1ncn2[C@H]1[C@H](O)[C@H](O)[C@@H](CO)[C@H]1F", "> 100 µM"],
  ["CNc1ncnc2c1ncn2[C@H]1[C@H](O)[C@H](O)[C@@H](CCO)[C@H]1F", "> 100 µM"]
]}

Please fill in: CC50 reported for Nc1ncnc2c1ncn2[C@H]1[C@H](O)[C@H](O)[C@@H](CO)C1(F)F = > 1.25 µM

====

System: Zika virus
Assay: Antiviral activity against ZIKV SL0612 infected in African green monkey Vero CCL81 cells pretreated with compound followed by viral infection and measured at 96 hrs post-infection by MTS assay
Type: functional, organism-based
Active and inactive are the calls of the source. The rule behind the calls is not given here.
MEASUREMENT_LABEL: Activity

{"columns": ["SMILES_STR", "MEASUREMENT_LABEL", "OBSERVED"],
 "data": [
  ["CNc1ncnc2c1ncn2[C@H]1[C@H](O)[C@H](O)[C@@H](CCO)C1(F)F", "Activity", "inactive"],
  ["Nc1ncnc2c1ncn2[C@H]1[C@H](O)[C@H](O)[C@@H](CCO)[C@H]1F", "Activity", "inactive"],
  ["OCC[C@@H]1[C@@H](O)[C@@H](O)[C@H](n2cnc3c(O)ncnc32)[C@@H]1F", "Activity", "inactive"],
  ["Nc1ncnc2c1ncn2[C@H]1[C@H](O)[C@H](O)[C@@H](CCO)C1(F)F", "Activity", "inactive"],
  ["CNc1ncnc2c1ncn2[C@H]1[C@H](O)[C@H](O)[C@@H](CCO)[C@H]1F", "Activity", "inactive"],
  ["Nc1ncnc2c1ncn2[C@H]1[C@H](O)[C@H](O)[C@@H](CO)[C@H]1F", "Activity", "Active"]
]}

# context switch: different compound, same Activity
The observed Activity for Nc1ncnc2c1ncn2[C@H]1[C@H](O)[C@H](O)[C@@H](CO)C1(F)F when tested with Zika virus stands at Active

====

Reported CC50 values for the following compounds.
System: Vero C1008
Assay: Cytotoxicity against African green monkey Vero E6 cells assessed as reduction in cell viability measured after 96 hrs by MTS assay
Type: cell-based
Conditions: chlorocebus sabaeus, vero c1008, 96 h

So, OCC[C@@H]1[C@@H](O)[C@@H](O)[C@H](n2cnc3c(O)ncnc32)[C@@H]1F ? Its CC50 was > 100 µM

Given item CNc1ncnc2c1ncn2[C@H]1[C@H](O)[C@H](O)[C@@H](CCO)C1(F)F , the value recorded as its CC50 is > 100 µM

Value of measured CC50 for the entry Nc1ncnc2c1ncn2[C@H]1[C@H](O)[C@H](O)[C@@H](CCO)C1(F)F : > 25 µM
